System: Cryptococcus neoformans
test-summary: Antifungal growth inhibition and MIC95, C. neoformans strains
Format: cell-based
reported-conditions: C. neoformans VANC-R265, 100 μM
Documented inhibition at 100 µM across a set of molecules
Reply numerically in %, unit not repeated.

{"molecule": "Clc1nc(Cl)c2scc(Br)c2n1", "inhibition at 100 µM / %": 67}

Input line: Find the recorded inhibition at 100 µM belonging to Clc1nc(Cl)c2sccc2n1 [Compound 1, 2,4-Dichlorothieno[3,2-d]pyrimidine] and report it.
Output line: 93

---

Documented inhibition at 100 µM across a set of compounds
Tested on: Cryptococcus neoformans
test-summary: Antifungal growth inhibition and MIC95, C. neoformans strains
Assay type: cell-based
reported-conditions: C. neoformans JEC20, 100 μM
Reply numerically in %, unit not repeated.

{"compound": "Clc1nc(Cl)c2scc(Br)c2n1", "scale-unit": "%", "inhibition at 100 µM": 91}

From here, focus on the item given below.
Input line: Find the recorded inhibition at 100 µM belonging to Clc1nc(Cl)c2sccc2n1 [Compound 1, 2,4-Dichlorothieno[3,2-d]pyrimidine] and report it.
Output line: 100
